assayed.target: Glucocorticoid Receptor (Homo sapiens, UniProt P04150)
Construct: These cells express large amount of the GR and are very responsive to GC treatment; endogenous in cells; host or cells: A549 cells transiently transfected with the MMTV-LUC reporter
protocol.text: Trans-Activation Modulation of Glucocorticoid Receptor (GRAMMER), MMTV-LUC reporter gene in A549 cells
Format: cell-based
measurement.context: A549, A549 cells; Emax relative to 300 nM dexamethasone; Table 1; read-out: Transactivation A549 Cells GRAMMER Emax
attribute.measured: Emax (%)

CCCCN(CCO)C(=O)[C@H]1CCC2=Cc3c(cnn3-c3ccc(F)cc3)C[C@@]21C    39.3
CCCN(CCO)C(=O)[C@H]1CCC2=Cc3c(cnn3-c3ccc(F)cc3)C[C@@]21C    5.7
C[C@]12Cc3cnn(-c4ccc(F)cc4)c3C=C1CC[C@@H]2C(=O)N(CCO)CCc1ccccc1    31.8

a = C[C@]12Cc3cnn(-c4ccc(F)cc4)c3C=C1CC[C@@H]2C(=O)N(CCO)Cc1cc(F)cc(F)c1
b = C[C@]12Cc3cnn(-c4ccc(F)cc4)c3C=C1CC[C@@H]2C(=O)N(CC1CCC1)CC1CCCO1 (stereo partly shown)
c = C[C@]12Cc3cnn(-c4ccc(F)cc4)c3C=C1CC[C@@H]2C(=O)N(CCO)Cc1csc2ccc(Cl)cc12
d = CC(O)CN(CC(C)O)C(=O)[C@H]1CCC2=Cc3c(cnn3-c3ccc(F)cc3)C[C@@]21C (stereo partly shown)
Ask: Arrange by Emax, high to low. I'd appreciate it if you listed the labels in the requested order.
Reply: d, b, a, c

----------
assayed.target: human GR (Homo sapiens, UniProt P04150)
Construct: U937 cells contain an endogenous glucocorticoid receptor (GR); endogenous in cells; host or cells: U937 cells stably transfected with the TNF-alpha promoter/beta-lactamase reporter
Sequence (P04150 1-777): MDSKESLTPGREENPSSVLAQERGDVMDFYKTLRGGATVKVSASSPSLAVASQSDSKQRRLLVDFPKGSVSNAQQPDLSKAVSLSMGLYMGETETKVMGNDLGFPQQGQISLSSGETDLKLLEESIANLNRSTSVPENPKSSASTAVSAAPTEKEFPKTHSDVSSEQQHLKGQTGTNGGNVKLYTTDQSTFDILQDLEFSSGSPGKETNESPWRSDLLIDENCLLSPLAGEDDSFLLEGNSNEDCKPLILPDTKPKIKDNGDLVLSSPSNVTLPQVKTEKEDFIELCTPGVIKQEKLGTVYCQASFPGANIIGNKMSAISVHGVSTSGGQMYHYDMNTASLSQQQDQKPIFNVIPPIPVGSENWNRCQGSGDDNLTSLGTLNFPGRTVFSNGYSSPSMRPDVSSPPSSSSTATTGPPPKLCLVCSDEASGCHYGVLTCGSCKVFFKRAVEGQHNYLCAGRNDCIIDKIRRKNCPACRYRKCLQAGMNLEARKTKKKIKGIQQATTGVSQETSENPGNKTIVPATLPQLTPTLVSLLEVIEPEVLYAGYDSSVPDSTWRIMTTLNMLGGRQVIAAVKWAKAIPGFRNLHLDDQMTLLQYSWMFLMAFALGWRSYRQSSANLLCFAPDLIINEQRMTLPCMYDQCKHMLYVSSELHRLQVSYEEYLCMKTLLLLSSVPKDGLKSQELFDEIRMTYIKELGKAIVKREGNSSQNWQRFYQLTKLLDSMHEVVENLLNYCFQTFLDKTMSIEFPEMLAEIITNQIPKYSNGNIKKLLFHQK
protocol.text: Transrepression Assay (GITAR), TNFα-β-lactamase reporter gene in U937 cells
Assay type: cell-based
measurement.context: U-937, U937 cells; activity repressed by 100 nM dexamethasone = 100%; Table 1; read-out: Transrepression U937 Cells GITAR Emax
attribute.measured: Emax (%)

1 = Cc1ccc(CCN(CC(O)C(F)(F)F)C(=O)[C@H]2CCC3=Cc4c(cnn4-c4ccc(F)cc4)C[C@@]32C)cc1 (stereo partly shown) [Compound 82]
2 = C[C@]12Cc3cnn(-c4ccc(F)cc4)c3C=C1CC[C@@H]2C(=O)N(Cc1ccc(Cl)cc1Cl)CC1CC1 [Compound 7]
3 = C[C@]12Cc3cnn(-c4ccc(F)cc4)c3C=C1CC[C@@H]2C(=O)N1CCCC(Cc2cccc(C(F)(F)F)c2)C1 (stereo partly shown) [Compound 21]
Ask: # descending Emax order for the listed compounds Order the labels as requested and give them as your answer.
Reply: 1, 3, 2
(1: 43.1%, 3: 28.1%, 2: 18.2%)

a = CC(C)CCN(CCC(C)C)C(=O)[C@H]1CCC2=Cc3c(cnn3-c3ccc(F)cc3)C[C@@]21C [Compound 8]
b = C[C@]12Cc3cnn(-c4ccc(F)cc4)c3C=C1CC[C@@H]2C(=O)NC(Cc1ccccc1)c1ccccc1 (stereo partly shown) [Compound 2]
Ask: Pick the one with the larger Emax: a vs b Please respond with the label that marks your chosen entry.
Reply: b
(b: 27.6%, a: 18%)
